System: Digitaria
Assay: Post-emergence test/greenhouse
Type: in vivo
Conditions: greenhouse, application rate 15 gai/ha, rated after three weeks, 0%=no effect, 100%=total destruction
Consider the cut-off 90%. If the recorded degree of damage to the plants, Digitaria is strictly smaller, the label is label 1; if not, the label is label 0.

# example entries with known answers
{"columns": ["compound", "label.value"],
 "data": [
  ["COC(=O)c1csc(C)c1S(=O)(=O)NC(=O)n1nc(C2CC2)n(C)c1=O", "label 0"],
  ["CCCOc1nn(C(=O)NS(=O)(=O)c2c(C(=O)OC)csc2C)c(=O)n1C1CC1 [(B), reference compound]", "label 1"],
  ["COCc1nn(C(=O)NS(=O)(=O)c2c(C(=O)OC)csc2C)c(=O)n1C1CC1", "label 0"],
  ["CCOn1c(CC)nn(C(=O)NS(=O)(=O)c2c(C(=O)OC)csc2C)c1=O", "label 0"],
  ["CCCc1nn(C(=O)NS(=O)(=O)c2c(C(=O)OC)csc2C)c(=O)n1C", "label 0"],
  ["CCCOc1nn(C(=O)NS(=O)(=O)c2c(C(=O)OC)csc2C)c(=O)n1C [(A), reference compound]", "label 1"]
]}

Exercise: Report whether reported degree of damage to the plants, Digitaria is lower than 90% (strictly) for COCc1nn(C(=O)NS(=O)(=O)c2c(C(=O)OC)csc2C)c(=O)n1C
Solution: label 0

---

Tested on: Alopecurus
Assay: Pre-emergence test/greenhouse
Assay type: in vivo
Settings: greenhouse, application rate 15 gai/ha, rated after three weeks, 0%=no effect, 100%=total destruction
endpoint.name: degree of damage to the plants, Alopecurus (%)
The answer is to be given in %; state only the numeric part.

Exercise: # query: degree of damage to the plants, Alopecurus of entry CCc1nn(C(=O)NS(=O)(=O)c2c(C(=O)OC)csc2C)c(=O)n1C [(F), reference compound]
Solution: 70

Exercise: What value of degree of damage to the plants, Alopecurus has been reported for the following compound? COC(=O)c1csc(C)c1S(=O)(=O)NC(=O)n1nc(C2CC2)n(C)c1=O
Solution: 95

Exercise: Suppose we examine the compound COCc1nn(C(=O)NS(=O)(=O)c2c(C(=O)OC)csc2C)c(=O)n1C ; what degree of damage to the plants, Alopecurus value has been reported?
Solution: 95

Exercise: Given the entry COC(=O)c1csc(C)c1S(=O)(=O)NC(=O)n1nc(OC(C)C)n(C2CC2)c1=O [(C), reference compound] , report its measured degree of damage to the plants, Alopecurus.
Solution: 0

Exercise: Reported degree of damage to the plants, Alopecurus, compound CCCc1nn(C(=O)NS(=O)(=O)c2c(C(=O)OC)csc2C)c(=O)n1C : ____
Solution: 100

Exercise: Quick one: degree of damage to the plants, Alopecurus for COC(=O)c1csc(C)c1S(=O)(=O)NC(=O)n1nc(C)n(C)c1=O [(E), reference compound] ?
Solution: 20

Exercise: degree of damage to the plants, Alopecurus lookup needed for COC(=O)c1csc(C)c1S(=O)(=O)NC(=O)n1nc(C2CC2)n(C2CC2)c1=O [(D), reference compound] , thanks.
Solution: 0

Exercise: Please look up its degree of damage to the plants, Alopecurus: CCSc1nn(C(=O)NS(=O)(=O)c2c(C(=O)OC)csc2C)c(=O)n1C
Solution: 90

Exercise: Sample CCOC(=O)c1csc(C)c1S(=O)(=O)NC(=O)n1nc(OCC)n(C)c1=O — what was its degree of damage to the plants, Alopecurus?
Solution: 95

Exercise: State the recorded degree of damage to the plants, Alopecurus for this entry: CCCOc1nn(C(=O)NS(=O)(=O)c2c(C(=O)OC)csc2C)c(=O)n1C1CC1 [(B), reference compound]
Solution: 20

Exercise: Entry COC(=O)c1csc(C)c1S(=O)(=O)NC(=O)n1nc(OCC(F)(F)F)n(C)c1=O : reported degree of damage to the plants, Alopecurus = ?
Solution: 100

Exercise: Which degree of damage to the plants, Alopecurus value belongs to CCCOc1nn(C(=O)NS(=O)(=O)c2c(C(=O)OC)csc2C)c(=O)n1C [(A), reference compound] ?
Solution: 60

Exercise: May I ask what degree of damage to the plants, Alopecurus has been recorded for COC(=O)c1csc(C)c1S(=O)(=O)NC(=O)n1nc(C)n(C2CC2)c1=O ?
Solution: 95

---

Listing: degree of damage to the plants, Datura of selected compounds
System: Datura
Experiment: Post-emergence test/greenhouse
Format: in vivo
Details: greenhouse, application rate 15 gai/ha, rated after three weeks, 0%=no effect, 100%=total destruction
Give your result in % as a bare value.

Exercise: Item CCOC(=O)c1csc(C)c1S(=O)(=O)NC(=O)n1nc(OCC)n(C)c1=O [Example 55] has what recorded degree of damage to the plants, Datura?
Solution: 95

Exercise: Consider the compound shown here: CCCOc1nn(C(=O)NS(=O)(=O)c2c(C(=O)OC)csc2C)c(=O)n1C1CC1 [(B), reference compound] What is its recorded degree of damage to the plants, Datura?
Solution: 80

Exercise: If you can, please state the reported degree of damage to the plants, Datura value of CCOC(=O)c1csc(C)c1S(=O)(=O)NC(=O)n1nc(OC)n(C2CC2)c1=O [Example 56] .
Solution: 90

Exercise: Data request, read-out degree of damage to the plants, Datura, for CCCOc1nn(C(=O)NS(=O)(=O)c2c(C(=O)OC)csc2C)c(=O)n1C [(A), reference compound]
Solution: 50

Exercise: So what does the record say about degree of damage to the plants, Datura for CCOC(=O)c1csc(C)c1S(=O)(=O)NC(=O)n1nc(OC)n(C)c1=O [Example 1] ?
Solution: 95

---

Listed next: entries and their corresponding degree of damage to the plants, Setaria.
Test system: Setaria
Assay: Post-emergence test/greenhouse
Format: in vivo
Details: greenhouse, application rate 15 gai/ha, rated after three weeks, 0%=no effect, 100%=total destruction
Dear colleague, please return just the value in %, with no unit written.

Some compounds with recorded degree of damage to the plants, Setaria:
{"columns": ["compound", "degree of damage to the plants, Setaria / %"],
 "data": [
  ["COCc1nn(C(=O)NS(=O)(=O)c2c(C(=O)OC)csc2C)c(=O)n1C1CC1", 90],
  ["CCCOc1nn(C(=O)NS(=O)(=O)c2c(C(=O)OC)csc2C)c(=O)n1C1CC1 [(B), reference compound]", 60],
  ["COCc1nn(C(=O)NS(=O)(=O)c2c(C(=O)OC)csc2C)c(=O)n1C", 100],
  ["CCc1nn(C(=O)NS(=O)(=O)c2c(C(=O)OC)csc2C)c(=O)n1C1CC1", 90],
  ["CCOn1c(CC)nn(C(=O)NS(=O)(=O)c2c(C(=O)OC)csc2C)c1=O", 95],
  ["CCCc1nn(C(=O)NS(=O)(=O)c2c(C(=O)OC)csc2C)c(=O)n1C", 90],
  ["COC(=O)c1csc(C)c1S(=O)(=O)NC(=O)n1nc(C2CC2)n(C)c1=O", 90],
  ["CCCOc1nn(C(=O)NS(=O)(=O)c2c(C(=O)OC)csc2C)c(=O)n1C [(A), reference compound]", 30]
]}

We next turn to a different compound, shown below.
Exercise: Can you share its degree of damage to the plants, Setaria? I mean this compound: CCCc1nn(C(=O)NS(=O)(=O)c2c(C(=O)OC)csc2C)c(=O)n1C1CC1
Solution: 80

---

Test system: Digitaria
Assay: Post-emergence test/greenhouse
Assay type: in vivo
Details: greenhouse, application rate 15 gai/ha, rated after three weeks, 0%=no effect, 100%=total destruction
Listed here are compounds together with their documented degree of damage to the plants, Digitaria.
# output: bare number, implied unit %

{"columns": ["molecular.string", "quantitative.result"],
 "data": [
  ["CCCc1nn(C(=O)NS(=O)(=O)c2c(C(=O)OC)csc2C)c(=O)n1C1CC1", 90],
  ["CCc1nn(C(=O)NS(=O)(=O)c2c(C(=O)OC)csc2C)c(=O)n1C1CC1", 90]
]}

Query compound follows.
Exercise: Which degree of damage to the plants, Digitaria value is on record for COC(=O)c1csc(C)c1S(=O)(=O)NC(=O)n1nc(C)n(C2CC2)c1=O ?
Solution: 90
